Recorded values, source patent US9381200B2.

- System: E. coli NCTC 13351
- protocolText: Antibacterial activity (MIC), agar dilution per CLSI
- Format: cell-based
- conditionInfo: Escherichia coli, NCTC13351, Table 3, E. coli NCTC 13351 expressing ESBL, 16-20 hours, 35±2° C., read-out: MIC
attributeMeasured: log10(MIC) (log10 of the value in µg/mL)

[[record]]
compound = "O=C(NNC(=O)[C@H]1CC[C@@H]2CN1C(=O)N2OS(=O)(=O)O)[C@H]1CCCNC1 (mixture of isomers) [Example 15]"
readoutvalue = 0.90

[[record]]
compound = "N#CCC(=O)NNC(=O)[C@@H]1CC[C@@H]2CN1C(=O)N2OS(=O)(=O)[O-].[Na+] [Example 43]"
readoutvalue = 0.00

[[record]]
compound = "NCC(=O)NNC(=O)[C@H]1CC[C@@H]2CN1C(=O)N2OS(=O)(=O)O (relative stereo) [Example 7]"
readoutvalue = 0.30

[[record]]
compound = "Nc1nc(C(=O)NNC(=O)[C@H]2CC[C@@H]3CN2C(=O)N3OS(=O)(=O)O)cs1 (relative stereo) [Example 42]"
readoutvalue = 1.51

[[record]]
compound = "O=C(NNC(=O)[C@H]1CC[C@@H]2CN1C(=O)N2OS(=O)(=O)O)[C@@H]1C[C@@H](O)CN1 (mixture of isomers) [Example 34]"
readoutvalue = 0.30

[[record]]
compound = "O=C(NNC(=O)[C@@H]1CC[C@@H]2CN1C(=O)N2OS(=O)(=O)O)[C@@H]1CCCNC1 [Example 2]"
readoutvalue = -0.60

[[record]]
compound = "O=C(NNC(=O)[C@H]1CC[C@@H]2CN1C(=O)N2OS(=O)(=O)O)C1CNCCN1 (mixture of isomers) [Example 38]"
readoutvalue = 0.60


###

Catalogue of molecules with associated MIC
- System: P. aeruginosa Ps 21
- protocolText: Antibacterial activity (MIC) against MDR Gram negative strains
- Format: cell-based
- conditionInfo: Pseudomonas aeruginosa, PS21; Table 5; P. aeruginosa Ps 21; read-out: MIC
attributeMeasured: MIC (µg/mL)

[[record]]
molecule = "O=C(NNC(=O)[C@H]1CC[C@@H]2CN1C(=O)N2OS(=O)(=O)O)[C@@H]1CCCCN1 (mixture of isomers)"
attributemeasured = "MIC"
limitsign = ">"
readoutvalue = 32

[[record]]
molecule = "NCCCC(=O)NNC(=O)[C@H]1CC[C@@H]2CN1C(=O)N2OS(=O)(=O)O (relative stereo)"
attributemeasured = "MIC"
limitsign = "="
readoutvalue = 8

[[record]]
molecule = "O=C(NNC(=O)[C@@H]1CC[C@@H]2CN1C(=O)N2OS(=O)(=O)O)[C@@H]1CCCNC1"
attributemeasured = "MIC"
limitsign = "="
readoutvalue = 8

[[record]]
molecule = "CC(C)(O/N=C(\\C(=O)N[C@@H]1C(=O)N2C(C(=O)[O-])=C(C[n+]3ccccc3)CS[C@H]12)c1csc(N)n1)C(=O)O [Ceftazidime, reference compound]"
attributemeasured = "MIC"
limitsign = ">"
readoutvalue = 32

[[record]]
molecule = "O=C(NNC(=O)[C@H]1CC[C@@H]2CN1C(=O)N2OS(=O)(=O)O)[C@@H]1C[C@H](F)CN1 (mixture of isomers)"
attributemeasured = "MIC"
limitsign = ">"
readoutvalue = 32


###

- Test system: K penumoniae H 523
- protocolText: Antibacterial activity (MIC) against MDR Gram negative strains
- Type: cell-based
- conditionInfo: Table 4; K penumoniae H 523, KPC ESBL, MDR; read-out: MIC
attributeMeasured: MIC (µg/mL)

[[record]]
compound = "N[C@@H]1CN[C@H](C(=O)NNC(=O)[C@H]2CC[C@@H]3CN2C(=O)N3OS(=O)(=O)O)C1 (mixture of isomers) [Example 35]"
unit = "µg/mL"
readoutvalue = 1

[[record]]
compound = "O=C(NNC(=O)[C@H]1CC[C@@H]2CN1C(=O)N2OS(=O)(=O)O)[C@@H]1CCCCN1 (mixture of isomers) [Example 17]"
unit = "µg/mL"
readoutvalue = 0.5

[[record]]
compound = "C[C@@H](O)[C@H]1C(=O)N2C(C(=O)O)=C(SCCN=CN)C[C@H]12 [Imipenem, reference compound]"
unit = "µg/mL"
readoutvalue = 16

